target: DLG2_3, Q15700; test: holdup assay; design: key: below the threshold = too weak to quantify, mostly under pKd 3.1 to 4; conditions: plain residues with an end cap or a label only (N-terminal biotin on a linker: ado-ado)
attribute_measured: pKd

binder: VYPNAKVELV [PDLIM4_iso2, P50479;P50479-1]
val: below the threshold
--
binder: QGPVETESVV [SLC45A4, Q5BKX6]
val: below the threshold
--
binder: YRLAQESGLV [ABCC6, O95255]
val: below the threshold
--
binder: QSLNRMEYIV [JAG1, P78504]
val: 3.96
--
binder: HSGYRLNDYV [CLDN14, O95500]
val: below the threshold
